TGI values for the compounds below.
tested on: MOLT-4 leukemia; assay: NCI tumour cell line growth inhibition, 48 h
Where a SMILES comes first, the peptide text is derived from it. The star is where a group is joined. Bn = c1ccc(C*)cc1

Incoming: State the recorded TGI for this entry: "O=C(CCc1cccc(O)c1)NCCCNC(=O)CCc1cccc(O)c1"
Outgoing: > 100 µM

Incoming: Follow-up item: COC(=O)C(CC(C)C)NC(=O)C(N)Cc1ccc(OCc2ccccc2)cc1 (stereo unspecified) (H-Tyr(Bn)-Leu-OMe; configuration not given here)
Outgoing: > 10 µM

Incoming: Follow-up item: C[C@]12CC[C@H](O)C=C1CC[C@@H]1[C@@H]2CC[C@]2(C)C(c3ccc(=O)oc3)CC[C@]12O (stereo partly specified)
Outgoing: < 0.0125 µM

Incoming: Follow-up item: "Cn1cc(-c2ccc(-c3cncc(Cl)c3N3CCC4(CCNC4=O)CC3)cc2)cn1"
Outgoing: > 100 µM

Incoming: Follow-up item: "COC(=O)c1cc(/C=C/c2ccc(S(N)(=O)=O)cc2)ccc1O"
Outgoing: > 100 µM

Incoming: Follow-up item: "Nc1nc(N)nc(CCCc2nc(N)nc(N)n2)n1"
Outgoing: > 100 µM

----------
system: HOP-18 NSCLC; test: NCI tumour cell line growth inhibition, 48 h
TGI values for the molecules below.

Consider the reported TGI for these molecules:
> print(dat)
                                   molecule    result
1  CC1CN1c1c(C(=O)/C=C/c2ccc(Cl)cc2)c(-c2ccccc2)nn(C)c1=O (configuration not stated)   > 10 µM
2                   NC(=O)c1ncn2c1NC(=O)CC2  > 100 µM
3            COC1=C(Br)C(=O)c2nc(C)ccc2C1=O   30.9 µM
4             O=C(O)CSc1n[nH]c(Cc2ccccc2)n1  > 100 µM
5  CC1=C(C(=O)NNS(=O)(=O)c2ccc(C)cc2)CC(C(=O)NNS(=O)(=O)c2ccc(C)cc2)=C(C)N1  > 100 µM
6  CC(C)(C)OC(=O)N1N=NC2C1C1CC(OCc3ccccc3)(OCc3ccccc3)C2O1 (configuration not stated)  > 100 µM
7  O=C(O)CN(c1ccccc1)S(=O)(=O)c1ccc([N+](=O)[O-])cc1  > 100 µM
8  Cc1cc(C(C)(C)C)cc(Cc2cc(C(C)(C)C)cc(Cc3cc(C(C)(C)C)cc(C)c3O)c2O)c1O     29 µM

Incoming: Record lookup: for HOP-18 NSCLC, what TGI belongs to "c1ccc(CSc2nc3ccccc3nc2-c2cccs2)cc1" ?
Outgoing: > 100 µM

Incoming: Follow-up item: "CC1=C(c2cc(C(=O)Nc3ccc(Cl)cc3)nc(=S)[nH]2)Sc2ccccc2N1"
Outgoing: > 100 µM

Incoming: Follow-up item: Cc1cccc(C(C)C)c1NC(=O)C(=O)C(C(=O)c1ccccc1F)C1OC(=O)c2ccccc21 (configuration not stated)
Outgoing: 32.4 µM

Incoming: Follow-up item: "CCCCC#CS(=O)(=O)C(F)(F)F"
Outgoing: > 100 µM

----------
system: ACHN renal; assay: NCI tumour cell line growth inhibition, 48 h
TGI values for the molecules below.

Consider the reported TGI for these molecules:
> print(dat)
                                   molecule  assay.system    result
1  C=CCn1c2c(sc1=S)C(S)N=CN2 (configuration not stated)    ACHN renal  > 100 µM
2  CC(=O)OC1C2CCC1C1C2C2(Cl)C(Cl)=C(Cl)C1(Cl)C2(Cl)Cl (configuration not stated)    ACHN renal   25.9 µM
3  N#CC(C(=O)CCC(=O)Nc1cccc(C(F)(F)F)c1)c1ccc(Cl)cc1 (configuration not stated)    ACHN renal  > 100 µM

Incoming: Record lookup: for ACHN renal, what TGI belongs to "O=C(CCc1cccc(O)c1)NCCCNC(=O)CCc1cccc(O)c1" ?
Outgoing: > 100 µM

Incoming: Follow-up item: "Cc1cn2c(C)csc2c1P(=O)(OC(C)C)OC(C)C"
Outgoing: > 100 µM

Incoming: Follow-up item: "CC(C)CCn1nc(N)c2nc3ccccc3nc21"
Outgoing: > 100 µM

Incoming: Follow-up item: "C[C@]12CC[C@@H]3c4ccc(O)c([N+](=O)[O-])c4CC[C@H]3[C@@H]1CC[C@@H]2NS(=O)(=O)c1cccc(Br)c1"
Outgoing: 8.17 µM

Incoming: Follow-up item: "O=C1CSC(c2ccc(-c3nc4ccccc4s3)cc2)=N1"
Outgoing: > 100 µM

Incoming: Follow-up item: CC1C(c2ccc3c(c2)OCO3)c2cc3c(cc2OC1N1CCOCC1)OCO3 (configuration not stated)
Outgoing: > 100 µM

Incoming: Follow-up item: COc1cc(C(=O)N2CCc3c([nH]c4c([N+](=O)[O-])c(OC)ccc34)C2C)cc(OC)c1OC (configuration not stated)
Outgoing: > 100 µM

Incoming: Follow-up item: CN(C)P(=O)(Oc1occc1C(O)Cc1ccccc1)N(C)C (configuration not stated)
Outgoing: > 100 µM

Incoming: Follow-up item: "c1ccc(C2=Nn3c(CCCCCCCCc4nnc5n4N=C(c4ccccc4)CS5)nnc3SC2)cc1"
Outgoing: > 100 µM

Incoming: Follow-up item: CC(C)(C)OC(=O)C1C(=O)NC(=O)CC1C(COCc1ccccc1)OCc1ccccc1 (configuration not stated)
Outgoing: 50.7 µM

Incoming: Follow-up item: "CC(C)(C)OC(=O)n1c(-c2ccccc2F)cc(=O)c2cc3c(cc21)OCO3"
Outgoing: > 58.7 µM

Incoming: Follow-up item: "COC1=C(Br)C(=O)c2nc(C)ccc2C1=O"
Outgoing: 24 µM

Incoming: Follow-up item: "CC1=C(C(=O)Nc2ccccc2)C(c2ccc(C3C(C(=O)Nc4ccccc4)=C(C)NC(C)=C3C(=O)Nc3ccccc3)cc2)C(C(=O)Nc2ccccc2)=C(C)N1"
Outgoing: 4.2 µM

Incoming: Follow-up item: "COc1ccc(/C=N/N2C(=O)c3c(N)c(C#N)c(-c4ccccc4)c(-c4ccccc4)c3C2=O)cc1"
Outgoing: > 100 µM

Incoming: Follow-up item: "COC(=O)CCC1=C(CC(=O)OC)C(C)=N/C1=C\c1[nH]c(-c2ccc[nH]2)cc1OC"
Outgoing: 15.6 µM

Incoming: Follow-up item: "Cc1cc(C)n(-c2nnc3n2N=C(c2ccc(-c4ccccc4)cc2)CS3)n1"
Outgoing: > 100 µM

Incoming: Follow-up item: "Cn1c(=O)c2c(ncn2CC(=O)Nc2ccc(-c3ccccc3)nn2)n(C)c1=O"
Outgoing: > 100 µM

Incoming: Follow-up item: CCOC(=O)C1CN(C2CC2)CCC1=O (configuration not stated)
Outgoing: > 100 µM

Incoming: Follow-up item: CC(C)C1=C2CCC3(C)C(CCC4C5C6OCC5(CCC6(C)C)CCC43C)C2(C)CC1 (configuration not stated)
Outgoing: 35.9 µM

Incoming: Follow-up item: "S=C1SC2=Nc3ccccc3CN2C2=NCCN12"
Outgoing: > 100 µM
